For each of the molecules below, state its IC50.
- TGT: Collagenase 3 (Homo sapiens)
- EXPERIMENT: Inhibition of human recombinant MMP-13 (20 to 471 residues) expressed in NS0 cells using (7-methoxycoumarin-4-y1)-acetyl-Pro-Leu-Gly-Leu-[3-(2,4-dinitropheny1)-L-2,3-diaminopropionyl]-Ala-Arg-NH2 as substrate preincubated with enzyme for 30 mins followed by substrate addition and measured after 10 mins by fluorescence based analysis
Give bare numbers, in nM.

SMILES: Cc1ccc(-c2noc(-c3ccc(S(=O)(=O)N(CCCCF)[C@@H](C(=O)O)C(C)C)cc3)n2)s1
TGT: Collagenase 3 (Homo sapiens)
MEASURE UNIT: nM
IC50: 96

SMILES: Cc1ccc(-c2noc(-c3ccc(S(=O)(=O)N(CCOCOCCCOCCN=[N+]=[N-])[C@@H](C(=O)O)C(C)C)cc3)n2)s1
TGT: Collagenase 3 (Homo sapiens)
MEASURE UNIT: nM
IC50: 93

SMILES: Cc1ccc(-c2noc(-c3ccc(S(=O)(=O)N(CCCC(F)(F)F)[C@@H](C(=O)O)C(C)C)cc3)n2)s1
TGT: Collagenase 3 (Homo sapiens)
MEASURE UNIT: nM
IC50: 391

SMILES: CCN([C@@H](C(=O)O)C(C)C)S(=O)(=O)c1ccc(-c2nc(-c3ccc(C)s3)no2)cc1
TGT: Collagenase 3 (Homo sapiens)
MEASURE UNIT: nM
IC50: 252

SMILES: Cc1ccc(-c2noc(-c3ccc(S(=O)(=O)N(C)[C@@H](C(=O)O)C(C)C)cc3)n2)s1
TGT: Collagenase 3 (Homo sapiens)
MEASURE UNIT: nM
IC50: 370

Lab note: each molecule below needs its IC50 filled in.
1. Cc1ccc(-c2noc(-c3ccc(S(=O)(=O)N(Cc4ccccc4)[C@@H](C(=O)O)C(C)C)cc3)n2)s1
2. CC(C)[C@@H](NS(=O)(=O)c1ccc(-c2nc(-c3ccc(Cn4cc(CCCF)nn4)s3)no2)cc1)C(=O)O
3. Cc1ccc(-c2noc(-c3ccc(S(=O)(=O)N(CCCCCCCCCCCCN=[N+]=[N-])[C@@H](C(=O)O)C(C)C)cc3)n2)s1
4. CCCN([C@@H](C(=O)O)C(C)C)S(=O)(=O)c1ccc(-c2nc(-c3ccc(C)s3)no2)cc1
5. CCCCCCN([C@@H](C(=O)O)C(C)C)S(=O)(=O)c1ccc(-c2nc(-c3ccc(C)s3)no2)cc1
6. CCCCN([C@@H](C(=O)O)C(C)C)S(=O)(=O)c1ccc(-c2nc(-c3ccc(C)s3)no2)cc1
7. CCCCCN([C@@H](C(=O)O)C(C)C)S(=O)(=O)c1ccc(-c2nc(-c3ccc(C)s3)no2)cc1
8. Cc1ccc(-c2noc(-c3ccc(S(=O)(=O)N(CCF)[C@@H](C(=O)O)C(C)C)cc3)n2)s1

Response given:
1. 987
2. 12
3. 2000
4. 350
5. 333
6. 212
7. 104
8. 458

Lab note: each molecule below needs its IC50 filled in.
1. Cc1ccc(-c2noc(-c3ccc(S(=O)(=O)N[C@@H](C(=O)O)C(C)C)cc3)n2)s1
2. CC(C)[C@@H](NS(=O)(=O)c1ccc(-c2nc(-c3ccc(Cn4cc(CCCCCF)nn4)s3)no2)cc1)C(=O)O

Response given:
[57, 36]
